Data credit: PubChem BioAssay (Tox21)

protocol summary: qHTS assay to identify small molecule antagonists of the estrogen related receptor (ERR) signaling pathway (AID 1224819; note: nearly all actives have a fitted effect of over 50% in size)
condition context: ERR reporter cell line, luciferase inhibition; series mostly up to 46.1 µM
Results filed as inconclusive are left out. The source made the active and inactive calls. Calls come from the whole dose curve; as a rule, active = well fitted inhibition curve with a large enough effect in the repeat runs; inconclusive = weak or mixed curves; inactive = no such curve, though single readings can be large or run the other way.
Entry note: the call must match one of active, inactive

Which outcome was assigned to `C[N+](C)(C)CCOC(=O)CBr` in this test?
inactive

Give the logged outcome of this assay for the following compound: `NCCCP(=O)(O)O`
inactive

Short answer needed: outcome of this test for c1ccc(C2(c3ccccc3)CC2C2=NCCN2)cc1 (stereo unspecified) ?
inactive

Please state the recorded outcome for this compound: CCCN(CCC)C1CCc2ccc(O)cc2C1 (stereo unspecified)
inactive

Would you mind telling me which call this test gave NCC(CP(=O)(O)O)c1ccc(Cl)cc1 (stereo unspecified) ?
inactive

So what was the verdict on `CN1CCC(c2c[nH]c3ccc(O)cc23)CC1` in this test?
inactive

Dear all, I need the recorded test outcome for `Clc1ccc(N2CC3CCC(C2)N3)nn1` , thank you.
inactive

Name the outcome recorded for `Cc1[nH]c2ccc(O)cc2c1CCN` in the assay.
inactive

How did this test come out for `CCCN(CCC)[C@@H]1CCc2cccc(O)c2C1` ?
inactive

For C[N+]1(C)C2CCC1CC(OC(=O)c1c[nH]c3ccccc13)C2 (stereo unspecified) , which call appears in the assay record?
inactive

Lab log entry: `NC(N)=NOCC[C@H](N)C(=O)O` — outcome as called in the assay?
inactive

Short answer needed: outcome of this test for `CC1=NN=C(c2ccc(N)cc2)c2cc3c(cc2C1)OCO3` ?
inactive

How was `CC(=O)c1c(O)c(C)c(O)c(Cc2c(O)c3c(c(C(=O)/C=C/c4ccccc4)c2O)OC(C)(C)C=C3)c1O` classified in this test?
active

I'd appreciate the recorded outcome for `Cc1sc2ccccc2c1CC1=NCCN1` from this test.
inactive

In this assay, the call recorded for `O=[N+]([O-])c1cc(O)c(O)c([N+](=O)[O-])c1` was what?
inactive

Recorded test outcome, item `O=C1CCCN1CC#CCN1CCCC1`
inactive

// param item: `CCCCCN(C)CCC(O)(P(=O)(O)O)P(=O)(O)O` ; yields the recorded call
inactive

Fill in: this test's call for `CCCN1CC[C@@H]2c3cc(O)ccc3CC[C@@H]21` is ___
inactive

Called result for NC(CCP(=O)(O)O)C(=O)O (stereo unspecified)
inactive

Please indicate how the test categorized `O=[N+]([O-])c1c(Cl)c(Cl)cc(Cl)c1Cl` .
inactive

Any idea what this test logged for NCC(O)c1cc(O)c(O)cc1F (stereo unspecified) ?
inactive

What outcome does the record of this test show for `COc1ccc2c(c1O)-c1cccc3c1[C@@H](C2)N(C)CC3` ?
inactive

Could you kindly confirm the outcome this assay logged for `OCc1cnc[nH]1` ?
inactive

// param item: CC(C)(O)[C@@H]1[C@H]2OC(=O)[C@@H]1[C@]1(O)C[C@H]3O[C@]34C(=O)O[C@H]2[C@]14C (tested in a mixture with another compound) ; yields the recorded call
inactive

# outcome recorded in this test, key = CC(C)NC(C)Cc1ccc(I)cc1 (stereo unspecified)
inactive

What was the test verdict on CC(N)c1cccc(Cl)c1Cl (stereo unspecified) ?
inactive

----------
target or test system: Acetylcholinesterase (Homo sapiens)
protocol summary: Acetylcholinesterase (AChE) small molecule antagonists: enzyme-based qHTS assay (AID 1347397); note: nearly all actives have a fitted effect of over 55% in size
condition context: AChE enzyme activity inhibition; series mostly up to 115 µM
Calls of active or inactive are those of the source. Calls follow the shape of the full dose curve.
Choose the fitting class; nothing outside class 1 for active, class 0 for inactive is accepted.

Please let me know the test result on file for `CCCCOC(=O)c1ccc(N)cc1` .
class 0

Call for entry `CCCCCCCCCO` :
class 0

Called result for `CO[C@@]1(NC(=O)CSCC#N)C(=O)N2C(C(=O)O)=C(CSc3nnnn3C)CS[C@@H]21`
class 0

Which outcome was assigned to `BrC(Br)C(Br)Br` in this test?
class 0

Can you look up the reported call for `C1CCCCC1` for me?
class 0

Fill in: this test's call for `O=C(Cl)c1c(Cl)cccc1Cl` is ___
class 0

Assay result, entry `C[Si](NC1CCCCC1)(NC1CCCCC1)NC1CCCCC1` — outcome?
class 0

For this compound, state the assay outcome: CC(=O)OC(C)(C)C1CC=C(C)CC1 (stereo not drawn)
class 0

How was `CCOc1cc(NC(C)=O)ccc1C(=O)OC` classified in this test?
class 0

Short answer needed: outcome of this test for `Nc1c(Cl)cc(Cl)cc1Cl` ?
class 0

Assay result, entry `O=C1O[C@H]([C@H](O)CO)C(O)=C1O` — outcome?
class 0

Status in this test for `O=C(CS)Nc1ccccc1` ?
class 0

Returns: the outcome recorded for `COc1cc2c(cc1OC)[C@@H]1CC(=O)[C@@H](CC(C)C)CN1CC2` in this assay.
class 0

Entry `c1ccc2cnccc2c1` : call = ?
class 0

I'd appreciate the recorded outcome for `COC(C)(OC)OC` from this test.
class 0

Query: recorded result category for `NC(=O)c1ncn([C@@H]2O[C@H](CO)[C@@H](O)[C@H]2O)n1` in this test
class 0

So what was the verdict on `CCCCCC(=O)OCCc1ccccc1` in this test?
class 0

# lookup: test call for `C=C(C)C(=O)OCCCCCCCC(C)C`
class 0

Given `O=c1oc(=O)c2cc3c(=O)oc(=O)c3cc12` , state the outcome it received in this test.
class 0

Outcome? `Cc1ccc(O)c(C(=O)c2ccccc2)c1`
class 0

For `C[C@H]1C[C@H](O)c2ccsc2S1(=O)=O` , what call appears in the results of this test?
class 0

Hi, sorry to bother you, what did the test record for `OCC1(CO)COCOC1` ?
class 0

Each compound tested received a call. Report the one for `O=C1c2ccccc2C(=O)c2c(O)c(O)cc(O)c21` .
class 0

Field: outcome | Entry: `CN(C)c1ccc(CCO)cc1`
class 0

Hey, what did the test say about `OCCNCCO` ?
class 0

Please let me know the test result on file for CC1(C)S[C@@H]2[C@H](NC(=O)C(C(=O)O)c3ccccc3)C(=O)N2[C@H]1C(=O)O (stereo partly drawn) .
class 0

Look up the recorded call for `CCCCCCCCOc1ccccc1C(=O)Nc1ccc(C(=O)OCC[N+](C)(CC)CC)cc1` in this test.
class 1

Could you kindly confirm the outcome this assay logged for `CC(C)c1nnc2ccc(-c3ocnc3-c3cc(F)ccc3F)cn12` ?
class 0

State the result this test recorded for `CC(=O)[C@H]1CC[C@H]2[C@@H]3C[C@H](C)C4=CC(=O)CC[C@]4(C)[C@H]3[C@@H](O)C[C@]12C` .
class 0

Please share the test call associated with `Cc1cccc(N(C)C(=S)Oc2ccc3ccccc3c2)c1` .
class 0

Which outcome was entered for the compound `NCCNCCNCCNCCN` in this test?
class 0

Could you check what this test reported for `CO[Si](CCCNCCNCCN)(OC)OC` ?
class 0

Could you check what this test reported for `c1ccc2c(c1)-c1ccc3ccc4cccc5cc-2c1c3c45` ?
class 0

Could you please tell me the result logged for CC(Oc1cc(Cl)ccc1Cl)C(=O)O (stereo not drawn) in this assay?
class 0

Look up the recorded call for `CC(C)Nc1cccnc1N1CCN(C(=O)c2cc3cc(NS(C)(=O)=O)ccc3[nH]2)CC1` in this test.
class 0

Identify the outcome logged in this assay for the compound shown: `Cc1ccc(C(=O)c2ccccc2)cc1`
class 0

Field: outcome | Entry: `CCCCCCCCCCCCO`
class 0

In this assay, the call recorded for `NC(N)=NC(=O)c1nc(Cl)c(N)nc1N` was what?
class 0

For `COc1cc([C@H]2Oc3cc([C@H]4Oc5cc(O)cc(O)c5C(=O)[C@@H]4O)ccc3O[C@@H]2CO)ccc1O` , what call appears in the results of this test?
class 0

In this assay, the call recorded for `CSc1ccc(/C=C2/C(C)=C(CC(=O)O)c3cc(F)ccc32)cc1` was what?
class 0

Status in this test for `CCCCCCCC#N` ?
class 0

What classification did `CC(=O)CCc1ccc(OC(C)=O)cc1` end up with in this test?
class 0

For `O=C(O)CCC(=O)C(=O)O` , what call appears in the results of this test?
class 0

What is the recorded call for this compound in the test? `CCCCCC[C@@H](CCC)C(=O)O`
class 0

Please share the test call associated with `Cc1cccc(Nc2cc(Cl)nc(SCC(=O)O)n2)c1C` .
class 0

Test call, this compound: `OC[C@H]1O[C@@H](Oc2ccc(O)cc2)[C@H](O)[C@@H](O)[C@@H]1O`
class 0

Per the assay record, what outcome was assigned to `CC(C)(C)c1ccc(S)cc1` ?
class 0

Assay result, entry `C=CCOCC(CC)(CO)COCC=C` — outcome?
class 0

// param item: `Cc1ncc([N+](=O)[O-])n1CCO` ; yields the recorded call
class 0

Outcome logged for `O=C(O)CCCCCC(=O)O` in this assay:
class 0

Could you please tell me the result logged for `O=C(O)Cc1csc(-c2ccc(Cl)cc2)n1` in this assay?
class 0

Check the results log: what was the call for `Cc1cc(Cl)c(C)cc1Cl` ?
class 0

Recorded test outcome, item `CC(=O)c1ccc(O)cc1`
class 0

Identify the outcome logged in this assay for the compound shown: `CCCC(CCC)(C(=O)OCC)C(=O)OCC`
class 0

Dear colleague, could you share the recorded outcome for `CCCCCC(=O)OCC` when you have a moment?
class 0

Short answer needed: outcome of this test for CCCCCCCC1CCCC1=O (stereo not drawn) ?
class 0

Each compound tested received a call. Report the one for `CC(=O)c1nccs1` .
class 0

Recorded call for `O=C1NCCN1` ?
class 0
